Attribution: ChEMBL document CHEMBL4043199

molecular target: Cytochrome P450 2D6 (Homo sapiens); experiment: Inhibition of CYP2D6 in human liver microsomes using bufuralol as substrate after 10 mins by LC-MS/MS analysis; format: ADME
measured-endpoint: IC50

// query Provide value of IC50 for this record tested with Cytochrome P450 2D6 (Homo sapiens): `O=C(c1cc(F)cc(Cl)c1)N1CCc2oc(-c3ccc(F)cn3)nc2C1`
// result > 50 µM

###

experiment: Aqueous solubility of compound at pH 7.4; format: physicochemical; conditions: aqueous medium
measured-endpoint: solubility
Param answer (str): number followed by unit.

INSERT INTO measurements (structure_smiles_string, result) VALUES
  ('O=C(c1cc(F)cc(Cl)c1)N1CCn2nc(-c3ccc(F)cn3)cc2C1', '4 µg/mL'),
  ('O=C(c1cccc(F)c1)N1CCc2oc(-c3ccc(F)cn3)nc2C1', '23 µg/mL'),
  ('O=C(c1ccccc1)N1CCc2oc(-c3ccc(F)cn3)nc2C1', '16 µg/mL');

Now look at this entry.
// query Given `O=C(c1cc(F)cc(Cl)c1)N1CCc2oc(-c3ccc(F)cn3)nc2C1` , state its recorded solubility.
// result 6 µg/mL

###

Reported IC50 is given for each of the following compounds.
target: Cytochrome P450 2C19 (Homo sapiens); assay: Inhibition of CYP2C19 in human liver microsomes using (S)-mephenytoin as substrate after 10 mins by LC-MS/MS analysis; type: ADME
Sequence (P33261 whole entry): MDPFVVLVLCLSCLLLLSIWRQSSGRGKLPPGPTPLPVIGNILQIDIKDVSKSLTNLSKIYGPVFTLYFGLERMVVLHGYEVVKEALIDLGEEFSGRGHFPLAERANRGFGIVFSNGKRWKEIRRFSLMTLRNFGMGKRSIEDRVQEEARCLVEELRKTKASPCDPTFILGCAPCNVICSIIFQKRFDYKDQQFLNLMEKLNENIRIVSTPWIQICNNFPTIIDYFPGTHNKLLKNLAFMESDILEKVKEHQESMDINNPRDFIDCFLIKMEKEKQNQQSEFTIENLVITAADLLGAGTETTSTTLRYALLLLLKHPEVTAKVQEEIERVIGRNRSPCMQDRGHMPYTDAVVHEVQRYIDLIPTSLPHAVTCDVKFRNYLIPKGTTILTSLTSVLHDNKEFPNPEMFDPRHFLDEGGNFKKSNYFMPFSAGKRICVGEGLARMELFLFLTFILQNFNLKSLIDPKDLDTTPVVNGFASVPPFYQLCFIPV

INSERT INTO measurements (structure_smiles_string, result) VALUES
  ('O=C(c1ccccc1)N1CCc2oc(-c3ccc(F)cn3)nc2C1', '> 50 µM');

Now look at this entry.
// query Provide value of IC50 for this record tested with Cytochrome P450 2C19 (Homo sapiens): `O=C(c1cccc(F)c1)N1CCc2oc(-c3ccc(F)cn3)nc2C1`
// result > 50 µM

###

Reported pIC50 is given for each of the following compounds.
biological target: Metabotropic glutamate receptor 5 (Homo sapiens, UniProt P41594); experiment: Negative allosteric modulation of human recombinant mGluR5 expressed in HEK293 cells assessed as inhibition of glutamate-induced calcium mobilization preincubated for 2 mins followed glutamate addition measured by fluorescence assay
Sequence (P41594 whole entry): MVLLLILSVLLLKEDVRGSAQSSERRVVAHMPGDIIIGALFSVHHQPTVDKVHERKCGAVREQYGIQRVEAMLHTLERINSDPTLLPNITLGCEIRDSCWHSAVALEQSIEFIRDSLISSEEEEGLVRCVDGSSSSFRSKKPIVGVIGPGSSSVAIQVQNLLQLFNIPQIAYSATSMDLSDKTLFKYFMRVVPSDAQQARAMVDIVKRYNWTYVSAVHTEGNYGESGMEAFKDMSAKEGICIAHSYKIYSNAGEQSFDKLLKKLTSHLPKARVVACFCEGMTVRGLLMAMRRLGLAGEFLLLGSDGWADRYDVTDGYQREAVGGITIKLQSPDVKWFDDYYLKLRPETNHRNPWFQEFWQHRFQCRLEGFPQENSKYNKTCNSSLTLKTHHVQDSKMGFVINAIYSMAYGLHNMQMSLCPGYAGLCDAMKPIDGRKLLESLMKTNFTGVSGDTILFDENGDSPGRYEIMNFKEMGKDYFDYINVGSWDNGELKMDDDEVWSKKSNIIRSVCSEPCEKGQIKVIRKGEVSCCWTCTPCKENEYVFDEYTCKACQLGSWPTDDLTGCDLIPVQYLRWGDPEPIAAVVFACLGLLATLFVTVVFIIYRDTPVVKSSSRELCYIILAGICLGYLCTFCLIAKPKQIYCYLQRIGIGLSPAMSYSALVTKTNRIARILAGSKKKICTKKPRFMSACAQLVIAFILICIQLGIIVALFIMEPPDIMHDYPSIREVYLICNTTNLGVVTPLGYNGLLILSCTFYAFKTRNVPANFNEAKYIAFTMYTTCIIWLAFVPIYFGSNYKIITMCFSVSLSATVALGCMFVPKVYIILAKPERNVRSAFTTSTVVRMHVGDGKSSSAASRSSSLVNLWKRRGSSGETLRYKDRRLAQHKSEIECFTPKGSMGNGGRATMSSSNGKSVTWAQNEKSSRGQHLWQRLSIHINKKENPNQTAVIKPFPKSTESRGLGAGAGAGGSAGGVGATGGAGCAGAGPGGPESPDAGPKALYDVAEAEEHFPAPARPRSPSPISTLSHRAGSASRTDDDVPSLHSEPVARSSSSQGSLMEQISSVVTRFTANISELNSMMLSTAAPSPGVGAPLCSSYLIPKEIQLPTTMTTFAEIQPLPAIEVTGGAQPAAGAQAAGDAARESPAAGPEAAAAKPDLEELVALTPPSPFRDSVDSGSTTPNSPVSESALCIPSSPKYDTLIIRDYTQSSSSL
Notebook: values listed as pIC50 are -log10 of the concentration (mol/L).

// query Provide value of pIC50 for this record tested with Metabotropic glutamate receptor 5 (Homo sapiens, UniProt P41594): `O=C(c1cccc(F)c1)N1CCc2oc(-c3ccc(F)cn3)nc2C1`
// result 7.20

###

biological target: UniProtKB P08684; experiment: Inhibition of CYP3A4 in human liver microsomes using midazolam as substrate after 10 mins by LC-MS/MS analysis; format: ADME; details: human, liver microsomes, probe midazolam
Sequence (P08684 whole entry): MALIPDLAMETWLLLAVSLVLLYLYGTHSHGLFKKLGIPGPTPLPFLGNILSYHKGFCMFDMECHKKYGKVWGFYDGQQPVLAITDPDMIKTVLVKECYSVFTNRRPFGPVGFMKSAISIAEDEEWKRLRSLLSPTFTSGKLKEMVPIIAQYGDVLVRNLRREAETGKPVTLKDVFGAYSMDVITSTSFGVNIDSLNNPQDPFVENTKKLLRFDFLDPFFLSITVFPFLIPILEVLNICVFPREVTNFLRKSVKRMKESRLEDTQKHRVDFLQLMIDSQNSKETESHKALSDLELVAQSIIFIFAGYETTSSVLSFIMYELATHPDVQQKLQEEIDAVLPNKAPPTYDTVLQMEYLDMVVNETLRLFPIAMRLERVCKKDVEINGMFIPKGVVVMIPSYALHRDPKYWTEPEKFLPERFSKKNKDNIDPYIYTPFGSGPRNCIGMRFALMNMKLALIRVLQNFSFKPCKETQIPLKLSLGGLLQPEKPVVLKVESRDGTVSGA
measured-endpoint: IC50 at 10 min

// query Given `O=C(c1cc(F)cc(Cl)c1)N1CCn2nc(-c3ccc(F)cn3)cc2C1` , state its recorded IC50 at 10 min.
// result > 40 µM

###

biological target: Voltage-gated inwardly rectifying potassium channel KCNH2 (Homo sapiens, UniProt Q12809); assay: Inhibition of human ERG
Sequence (Q12809 whole entry): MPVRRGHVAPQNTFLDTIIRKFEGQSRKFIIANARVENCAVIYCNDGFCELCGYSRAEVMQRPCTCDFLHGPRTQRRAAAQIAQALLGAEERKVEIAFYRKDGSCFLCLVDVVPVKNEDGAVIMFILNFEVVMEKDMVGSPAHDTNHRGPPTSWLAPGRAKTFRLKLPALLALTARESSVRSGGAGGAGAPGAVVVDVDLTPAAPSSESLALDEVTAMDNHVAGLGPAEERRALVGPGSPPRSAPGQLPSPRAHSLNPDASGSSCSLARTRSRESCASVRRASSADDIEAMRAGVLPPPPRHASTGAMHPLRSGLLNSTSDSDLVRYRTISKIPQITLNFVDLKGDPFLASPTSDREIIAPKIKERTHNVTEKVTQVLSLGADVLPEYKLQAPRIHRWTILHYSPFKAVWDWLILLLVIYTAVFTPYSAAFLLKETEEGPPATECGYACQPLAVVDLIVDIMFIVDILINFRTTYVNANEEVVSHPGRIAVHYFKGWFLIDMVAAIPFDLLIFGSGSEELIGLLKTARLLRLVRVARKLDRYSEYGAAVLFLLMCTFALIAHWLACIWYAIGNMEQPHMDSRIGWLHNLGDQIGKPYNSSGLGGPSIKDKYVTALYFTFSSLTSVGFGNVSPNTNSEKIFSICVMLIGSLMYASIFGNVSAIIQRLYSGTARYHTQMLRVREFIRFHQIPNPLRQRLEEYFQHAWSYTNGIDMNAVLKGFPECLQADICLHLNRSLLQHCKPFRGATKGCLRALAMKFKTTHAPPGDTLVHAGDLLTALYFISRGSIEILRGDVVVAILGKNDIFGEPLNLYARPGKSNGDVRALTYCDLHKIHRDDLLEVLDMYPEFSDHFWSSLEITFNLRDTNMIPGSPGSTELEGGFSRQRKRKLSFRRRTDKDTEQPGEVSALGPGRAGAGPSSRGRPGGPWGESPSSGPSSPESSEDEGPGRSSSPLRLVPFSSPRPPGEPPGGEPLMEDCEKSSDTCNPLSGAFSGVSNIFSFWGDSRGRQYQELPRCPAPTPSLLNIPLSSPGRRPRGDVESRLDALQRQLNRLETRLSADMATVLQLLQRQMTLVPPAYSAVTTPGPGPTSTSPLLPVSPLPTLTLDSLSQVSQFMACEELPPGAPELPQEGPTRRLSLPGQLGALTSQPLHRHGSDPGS
Reported IC50 is given for each of the following compounds.
State the answer as a number, implicitly in µM.

INSERT INTO measurements (structure_smiles_string, measured_endpoint, quantitative_readout) VALUES
  ('O=C(c1ccccc1)N1CCc2oc(-c3ccc(F)cn3)nc2C1', 'IC50', 64);

Now look at this entry.
// query Given `O=C(c1cc(F)cc(Cl)c1)N1CCc2oc(-c3ccc(F)cn3)nc2C1` , state its recorded IC50.
// result 19

###

assay: Volume of distribution at steady state in rat at 1 mg/kg, iv after 24 hrs; type: ADME, organism-based; details: in vivo, read-out: Vdss
measured-endpoint: Vd (L/kg)
State the answer as a number, implicitly in L/kg.

INSERT INTO results (structure_smiles_string, measured_endpoint, output_unit, quantitative_readout) VALUES
  ('O=C(c1cccc(F)c1)N1CCc2oc(-c3ccc(F)cn3)nc2C1', 'Vd', 'L/kg', 1.6);

Now look at this entry.
// query Given `O=C(c1cc(F)cc(Cl)c1)N1CCc2oc(-c3ccc(F)cn3)nc2C1` , state its recorded Vd.
// result 2.4

###

Reported AUC is given for each of the following compounds.
assay: AUC in rat at 10 mg/kg, po; assay type: ADME, organism-based; conditions: in vivo
State the answer as a number, implicitly in ng·h/mL.

// query Given `O=C(c1cccc(F)c1)N1CCc2oc(-c3ccc(F)cn3)nc2C1` , state its recorded AUC.
// result 26100

// query What do you get for `O=C(c1ccccc1)N1CCc2oc(-c3ccc(F)cn3)nc2C1` ?
// result 37400

// query What do you get for `O=C(c1cc(F)cc(Cl)c1)N1CCc2oc(-c3ccc(F)cn3)nc2C1` ?
// result 34500

###

biological target: CYP2D6 (Homo sapiens, UniProt P10635); assay: Inhibition of CYP2D6 in human liver microsomes using bufuralol as substrate after 10 mins by LC-MS/MS analysis; type: ADME; details: human, liver microsomes, probe bufuralol
Sequence (P10635 whole entry): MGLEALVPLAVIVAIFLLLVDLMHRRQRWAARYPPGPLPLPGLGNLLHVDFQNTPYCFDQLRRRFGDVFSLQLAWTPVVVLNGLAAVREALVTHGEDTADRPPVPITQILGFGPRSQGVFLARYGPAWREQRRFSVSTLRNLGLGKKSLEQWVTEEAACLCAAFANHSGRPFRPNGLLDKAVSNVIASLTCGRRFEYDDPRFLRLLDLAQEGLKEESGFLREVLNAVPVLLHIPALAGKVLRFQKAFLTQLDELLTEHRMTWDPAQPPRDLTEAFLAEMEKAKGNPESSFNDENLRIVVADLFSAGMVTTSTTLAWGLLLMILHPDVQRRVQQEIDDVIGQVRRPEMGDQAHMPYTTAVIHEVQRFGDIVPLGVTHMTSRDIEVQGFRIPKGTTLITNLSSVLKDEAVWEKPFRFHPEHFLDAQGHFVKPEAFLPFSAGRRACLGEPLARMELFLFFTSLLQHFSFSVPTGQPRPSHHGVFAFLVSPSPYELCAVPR
measured-endpoint: IC50 at 10 min

// query Given `O=C(c1cc(F)cc(Cl)c1)N1CCn2nc(-c3ccc(F)cn3)cc2C1` , state its recorded IC50 at 10 min.
// result > 40 µM

###

test: Oral bioavailability in rat at 10 mg/kg; assay type: ADME, organism-based; conditions: in vivo
Reported bioavailability is given for each of the following compounds.
State the answer as a number, implicitly in %.

// query Given `O=C(c1cc(F)cc(Cl)c1)N1CCc2oc(-c3ccc(F)cn3)nc2C1` , state its recorded bioavailability.
// result 80

// query What do you get for `O=C(c1ccccc1)N1CCc2oc(-c3ccc(F)cn3)nc2C1` ?
// result 102

###

test: Half life in monkey at 0.5 mg/kg, iv; type: ADME, organism-based, Macaca mulatta; details: rhesus monkey, in vivo
measured-endpoint: half-life (h)
State the answer as a number, implicitly in h.

// query Given `O=C(c1cc(F)cc(Cl)c1)N1CCc2oc(-c3ccc(F)cn3)nc2C1` , state its recorded half-life.
// result 16.1

// query What do you get for `O=C(c1cccc(F)c1)N1CCc2oc(-c3ccc(F)cn3)nc2C1` ?
// result 9.5

// query What do you get for `O=C(c1ccccc1)N1CCc2oc(-c3ccc(F)cn3)nc2C1` ?
// result 4.8

###

Molecular target: Cytochrome P450 1A2 (Homo sapiens)
Sequence (P05177 whole entry): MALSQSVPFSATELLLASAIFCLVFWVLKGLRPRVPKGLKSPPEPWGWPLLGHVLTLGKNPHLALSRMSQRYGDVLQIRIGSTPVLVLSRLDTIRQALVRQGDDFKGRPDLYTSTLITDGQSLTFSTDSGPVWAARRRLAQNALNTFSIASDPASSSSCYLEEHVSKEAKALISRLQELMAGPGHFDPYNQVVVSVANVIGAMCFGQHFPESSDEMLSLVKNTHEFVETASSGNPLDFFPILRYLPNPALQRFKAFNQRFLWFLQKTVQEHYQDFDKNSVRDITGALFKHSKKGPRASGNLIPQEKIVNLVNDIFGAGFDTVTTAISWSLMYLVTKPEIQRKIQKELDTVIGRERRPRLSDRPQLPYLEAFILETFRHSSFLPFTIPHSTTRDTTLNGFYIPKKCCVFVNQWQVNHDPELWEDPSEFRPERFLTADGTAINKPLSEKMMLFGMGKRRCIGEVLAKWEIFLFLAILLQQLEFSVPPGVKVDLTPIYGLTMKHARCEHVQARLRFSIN
measured-endpoint: IC50

// query Provide value of IC50 for this record tested with Cytochrome P450 1A2 (Homo sapiens): `O=C(c1cccc(F)c1)N1CCc2oc(-c3ccc(F)cn3)nc2C1`
// result > 50 µM

###

assay: AUC in rat at 0.35 mg/kg, iv; type: ADME, organism-based; details: in vivo
measured-endpoint: AUC (ng·h/mL)
State the answer as a number, implicitly in ng·h/mL.

// query Given `O=C(c1ccccc1)N1CCc2oc(-c3ccc(F)cn3)nc2C1` , state its recorded AUC.
// result 1290

###

assay: Permeability of the compound at pH 7.4 by PAMPA; type: physicochemical; conditions: read-out: permeability
Reported Papp is given for each of the following molecules.
State the answer as a number, implicitly in ×10⁻⁶ cm/s.

INSERT INTO assay_data (structure_smiles_string, output_unit, quantitative_readout) VALUES
  ('O=C(c1cc(F)cc(Cl)c1)N1CCc2oc(-c3ccc(F)cn3)nc2C1', '×10⁻⁶ cm/s', 37.1);

// query Given `O=C(c1cccc(F)c1)N1CCc2oc(-c3ccc(F)cn3)nc2C1` , state its recorded Papp.
// result 31.7

// query What do you get for `O=C(c1ccccc1)N1CCc2oc(-c3ccc(F)cn3)nc2C1` ?
// result 34.5

###

target: CYP2C9 (Homo sapiens); assay: Inhibition of CYP2C9 in human liver microsomes using diclofenac as substrate after 10 mins by LC-MS/MS analysis; format: ADME; settings: human, liver microsomes, probe diclofenac
Sequence (P11712 whole entry): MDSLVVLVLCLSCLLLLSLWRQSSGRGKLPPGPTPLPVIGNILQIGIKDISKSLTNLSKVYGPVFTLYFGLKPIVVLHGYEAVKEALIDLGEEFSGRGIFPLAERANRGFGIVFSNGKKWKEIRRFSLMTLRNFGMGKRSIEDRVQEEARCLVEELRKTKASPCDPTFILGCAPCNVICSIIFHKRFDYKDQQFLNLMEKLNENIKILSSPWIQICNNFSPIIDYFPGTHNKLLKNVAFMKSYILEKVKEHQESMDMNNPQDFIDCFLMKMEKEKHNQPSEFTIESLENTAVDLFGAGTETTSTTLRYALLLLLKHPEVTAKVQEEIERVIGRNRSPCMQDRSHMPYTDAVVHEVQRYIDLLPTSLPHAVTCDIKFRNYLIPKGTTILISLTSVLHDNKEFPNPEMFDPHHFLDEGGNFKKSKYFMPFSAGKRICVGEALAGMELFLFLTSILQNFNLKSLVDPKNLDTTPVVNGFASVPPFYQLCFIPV
measured-endpoint: IC50 at 10 min

// query Given `O=C(c1cc(F)cc(Cl)c1)N1CCn2nc(-c3ccc(F)cn3)cc2C1` , state its recorded IC50 at 10 min.
// result > 40 µM
